From: paper PMC6151961

Target: CA IX (Homo sapiens, UniProt Q16790)
Assay: biochemical
Conditions: experimental value from the library Ki (IDs A…, B…); values equal log10 of Ki in nM; read-out: pKi (exp.) (converted)
Readout label: Ki (nM)

Molecule: CC(=O)[C@H]1NN(c2ccccc2)[C@H]([C@H](C#N)C(=O)Nc2ccc(S(N)(=O)=O)cc2)S1 [A0013]
Readout label: Ki
Data value: 0.33

Molecule: NS(=O)(=O)c1ccc(-n2cc(/C=N/Nc3nc(-c4cc5cc(Cl)ccc5oc4=O)cs3)c(-c3ccc(F)cc3)n2)cc1 [B0019]
Readout label: Ki
Data value: 2.5

Molecule: Cc1ncc(-c2ccc(S(N)(=O)=O)s2)o1 [B0222]
Readout label: Ki
Data value: 11

Molecule: CN1N[C@@H](S(N)(=O)=O)S[C@H]1NC(=O)CCSSCCC(=O)/N=c1\sc(S(N)(=O)=O)nn1C [A0620]
Readout label: Ki
Data value: 9.29
